# Lookup of reported IC50 keyed by entry
Molecular target: human adenosine A2b receptor (Homo sapiens (Human))
Sequence (P29275 whole entry): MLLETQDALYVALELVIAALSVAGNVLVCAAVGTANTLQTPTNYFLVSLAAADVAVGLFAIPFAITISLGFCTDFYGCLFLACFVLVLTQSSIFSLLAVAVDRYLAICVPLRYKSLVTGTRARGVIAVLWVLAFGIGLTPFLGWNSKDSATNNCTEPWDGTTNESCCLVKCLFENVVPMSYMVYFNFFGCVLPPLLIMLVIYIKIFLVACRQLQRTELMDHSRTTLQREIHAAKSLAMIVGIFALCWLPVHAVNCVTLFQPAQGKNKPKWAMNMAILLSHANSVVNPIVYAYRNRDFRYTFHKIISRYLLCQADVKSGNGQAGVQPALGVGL
Assay: Cellular in vitro reporter gene test for A2b receptor activity (CHO-K1, CRE-luciferase, NECA stimulation)
Assay type: cell-based
Details: recombinant CHO-K1 cell line, CRE-luciferase reporter, antagonism of EC50 concentration of NECA; in some cases means of several determinations, rounded to two significant figures; read-out: A2b receptor IC50
Give a bare numeral; the unit nM is implied.

Would you please look over these solved cases?
COC(=O)N=C1NCCN1Cc1sc2c(c1C)c(=O)n(CC(F)(F)F)c(=O)n2CCC(F)(F)F: 4.1
Cc1c(CN2CCNC(=O)C2=O)sc2c1c(=O)n(CC(C)(C)C)c(=O)n2CC1CCCO1 (single isomer, unassigned) [Example 485]: 52
Cc1c(CN2CCNC2=S)sc2c1c(=O)n(CC(F)(F)F)c(=O)n2CC1COC1: 5.5

The reported IC50 value, human adenosine A2b receptor (Homo sapiens (Human)), for Cc1c(CN2CCNC2=O)sc2c1c(=O)n(CC(F)(F)F)c(=O)n2CC1CCO1 (single isomer, unassigned) [Example 208] reads 8.9

The reported IC50 value, human adenosine A2b receptor (Homo sapiens (Human)), for Cc1c(Cn2nc[nH]c2=O)sc2c1c(=O)n(CC(C)(C)C)c(=O)n2CC1CCCO1 (single isomer, unassigned) [Example 431] reads 740

The reported IC50 value, human adenosine A2b receptor (Homo sapiens (Human)), for Cc1c(CN2CCNC2=O)sc2c1c(=O)n(CC(F)(F)F)c(=O)n2CC1CCCO1 (single isomer, unassigned) [Example 210] reads 9.1

The reported IC50 value, human adenosine A2b receptor (Homo sapiens (Human)), for CCn1c(=O)c2c(C)c(CN3CCCCC3=O)sc2n(CCC(F)(F)F)c1=O reads 12
